Test system: 624824-186-R-J3-PDC multicell spheroids, viability
test details: Anticancer human tumor 624824-186-R-J3-PDC patient-derived colon adenocarcinoma cell line growth inhibition [PI3K]
experimental setup: second compound 1 µM; first compound 0.1 µM; stronger effect = lower value
Please respond with reported viability, T/C for every item in the list.
Quick reminder: number only, in %, skip the unit.

[Q] Give the value of viability, T/C reported for the following: Cn1nccc1Nc1nccc(-c2ccn(C(CO)c3ccc(Cl)c(F)c3)c(=O)c2)n1 (stereo not given) + CC(Nc1ncnc2nc[nH]c12)c1cc2cccc(Cl)c2c(=O)n1-c1ccccc1
[A] 88.2

[Q] Give the value of viability, T/C reported for the following: CCN1CCN(Cc2ccc(Nc3ncc(F)c(-c4cc(F)c5nc(C)n(C(C)C)c5c4)n3)nc2)CC1 + CC(Nc1ccc2c(c1)OCCn1cc(N3C(=O)OCC3C(F)F)nc1-2)C(N)=O
[A] 56.5

[Q] Give the value of viability, T/C reported for the following: C=CC(=O)N1CCN(c2nc(=O)n(-c3c(C)ccnc3C(C)C)c3nc(-c4c(O)cccc4F)c(F)cc23)C(C)C1 (stereo not given) + CC(Nc1ncnc2nc[nH]c12)c1cc2cccc(Cl)c2c(=O)n1-c1ccccc1
[A] 111

[Q] Give the value of viability, T/C reported for the following: CC1(C)CCC(Nc2ncc(C(F)(F)F)c(-c3c[nH]c4c(P(C)(C)=O)c(C#N)ccc34)n2)CN1 (stereo not given) + Cc1nc(NC(=O)N2CCCC2C(N)=O)sc1-c1ccnc(C(C)(C)C(F)(F)F)c1
[A] 75.9

[Q] Give the value of viability, T/C reported for the following: CC1(C)CCC(CN2CCN(c3ccc(C(=O)NS(=O)(=O)c4ccc(NCC5CCOCC5)c([N+](=O)[O-])c4)c(Oc4cnc5[nH]ccc5c4)c3)CC2)=C(c2ccc(Cl)cc2)C1 + CC(Nc1ncnc2nc[nH]c12)c1cc2cccc(Cl)c2c(=O)n1-c1ccccc1
[A] 111

###

Please respond with reported viability, T/C for every item in the list.
Test system: 624824-186-R-J3-PDC multicell spheroids, viability
test details: Anticancer human tumor 624824-186-R-J3-PDC cell line growth inhibition [PI3K];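 further: luminescent signal used as a stand-in for spheroid viability; spheroids exposed to agents for seven days before luminescence read; percent viability relative to DMSO vehicle control wells taken as 100%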
experimental setup: second compound 0.316 µM; first compound 0.316 µM; stronger effect = lower value
Quick reminder: number only, in %, skip the unit.

[Q] Supply viability, T/C measured with 624824-186-R-J3-PDC multicell spheroids, viability for C=CC(=O)N1CCN(c2nc(=O)n(-c3c(C)ccnc3C(C)C)c3nc(-c4c(O)cccc4F)c(F)cc23)C(C)C1 (stereo not given) + Cc1nc(NC(=O)N2CCCC2C(N)=O)sc1-c1ccnc(C(C)(C)C(F)(F)F)c1 .
[A] 116

[Q] Supply viability, T/C measured with 624824-186-R-J3-PDC multicell spheroids, viability for C=CC(=O)N1CCN(c2nc(=O)n(-c3c(C)ccnc3C(C)C)c3nc(-c4c(O)cccc4F)c(F)cc23)C(C)C1 (stereo not given) + COc1c(OCCCN2CCOCC2)ccc2c3n(c(=NC(=O)c4cnc(N)nc4)nc12)CCN3 .
[A] 53.2

[Q] Supply viability, T/C measured with 624824-186-R-J3-PDC multicell spheroids, viability for CC(Cn1ccc(-c2ccc(C#N)c(Cl)c2)n1)NC(=O)c1cc(C(C)O)[nH]n1 (stereo not given) + COc1c(OCCCN2CCOCC2)ccc2c3n(c(=NC(=O)c4cnc(N)nc4)nc12)CCN3 .
[A] 49.8

[Q] Supply viability, T/C measured with 624824-186-R-J3-PDC multicell spheroids, viability for CCCS(=O)(=O)Nc1ccc(F)c(C(=O)c2c[nH]c3ncc(-c4ccc(Cl)cc4)cc23)c1F + Cc1nc(NC(=O)N2CCCC2C(N)=O)sc1-c1ccnc(C(C)(C)C(F)(F)F)c1 .
[A] 80.7

[Q] Supply viability, T/C measured with 624824-186-R-J3-PDC multicell spheroids, viability for CC(C)NCC(C(=O)N1CCN(c2ncnc3c2C(C)CC3O)CC1)c1ccc(Cl)cc1 (stereo not given) + COc1c(OCCCN2CCOCC2)ccc2c3n(c(=NC(=O)c4cnc(N)nc4)nc12)CCN3 .
[A] 46.5

Data provenance is PubChem BioAssay AID1963977.
